Experiment: Inhibition of HCV NS5B polymerase […]
Set-up: species or system Hepacivirus hominis
Exercise: for every item that follows, state its recorded IC50.
One number for each entry, in µM.

Compound	IC50 / µM
Cc1ccc(S(=O)(=O)NC2=NC(=O)C(Cc3ccc(Br)o3)S2)cc1 (stereo not given)	40

Provide each entry's IC50 from the list below.
1. CCc1ccc(/C=C2\SC(NS(=O)(=O)c3ccc(C)cc3)=NC2=O)o1
2. Cc1ccc(C(=O)NC2=NC(=O)/C(=C/c3cccs3)S2)cc1

Response line:
1: 1.4; 2: 33

Prompt line: Please list IC50 recorded for the compound CCc1ccc(CC2SC(NS(=O)(=O)c3ccc(C)cc3)=NC2=O)o1 (stereo not given)
Response line: 7.3
